The measured values listed here are drawn from paper PMC8260793.

Here, each record is paired with measured percent of parent data.
B1: Cas3 of E. coli K12 Type I-E CRISPR/Cas complex [E. coli K12] / Cas6 of E. coli K12 Type I-E CRISPR/Cas complex [E. coli K12] (parent complex)
chain 1: MEPFKYICHYWGKSSKSLTKGNDIHLLIYHCLDVAAVADCWWDQSVVLQNTFCRNEMLSKQRVKAWLLFFIALHDIGKFDIRFQYKSAESWLKLNPATPSLNGPSTQMCRKFNHGAAGLYWFNQDSLSEQSLGDFFSFFDAAPHPYESWFPWVEAVTGHHGFILHSQDQDKSRWEMPASLASYAAQDKQAREEWISVLEALFLTPAGLSINDIPPDCSSLLAGFCSLADWLGSWTTTNTFLFNEDAPSDINALRTYFQDRQQDASRVLELSGLVSNKRCYEGVHALLDNGYQPRQLQVLVDALPVAPGLTVIEAPTGSGKTETALAYAWKLIDQQIADSVIFALPTQATANAMLTRMEASASHLFSSPNLILAHGNSRFNHLFQSIKSRAITEQGQEEAWVQCCQWLSQSNKKVFLGQIGVCTIDQVLISVLPVKHRFIRGLGIGRSVLIVDEVHAYDTYMNGLLEAVLKAQADVGGSVILLSATLPMKQKQKLLDTYGLHTDPVENNSAYPLINWRGVNGAQRFDLLAHPEQLPPRFSIQPEPICLADMLPDLTMLERMIAAANAGAQVCLICNLVDVAQVCYQRLKELNNTQVDIDLFHARFTLNDRREKENRVISNFGKNGKRNVGRILVATQVVEQSLDVDFDWLITQHCPADLLFQRLGRLHRHHRKYRPAGFEIPVATILLPDGEGYGRHEHIYSNVRVMWRTQQHIEELNGASLFFPDAYRQWLDSIYDDAEMDEPEWVGNGMDKFESAECEKRFKARKVLQWAEEYSLQDNDETILAVTRDGEMSLPLLPYVQTSSGKQLLDGQVYEDLSHEQQYEALALNRVNVPFTWKRSFSEVVDEDGLLWLEGKQNLDGWVWQGNSIVITYTGDEGMTRVIPANPK
chain 2: MYLSKVIIARAWSRDLYQLHQGLWHLFPNRPDAARDFLFHVEKRNTPEGCHVLLQSAQMPVSTAVATVIKTKQVEFQLQVGVPLYFRLRANPIKTILDNQKRLDSKGNIKRCRVPLIKEAEQIAWLQRKLGNAARVEDVHPISERPQYFSGDGKSGKIQTVCFEGVLTINDAPALIDLVQQGIGPAKSMGCGLLSLAPL

Variants of: B1
experimental protocol: SPEC system (split protease-E. coli ClpXP) in E. coli cells; parent: 100; read off a plot
experimental endpoint: percent of parent

1) chain 1 K320N : ~120%
2) chain 1 K78A : ~95%
3) chain 1 H74A : ~150%
4) chain 1 D75A : ~110%
5) chain 1 D452N : ~140%
6) chain 1 S483A, chain 1 T485A : ~130%
